// GI50 lookup, one value per entry
# Test system: IGROV-1
# experiment-description: NCI tumour cell line growth inhibition, 48 h
Calls of active or inactive are those of the source. No stated cut-off is given here; in the data, active = GI50 up to about 1.1 µM and inactive = higher.

Check out these entries, answers already filled in.
Query block: Give a short answer stating reported GI50 for COc1ccc(N2C(=O)CC(=O)N(NC(=O)C(C)Oc3ccccc3C)C2=S)cc1 (centres undefined) .
Result block: > 100 µM (inactive)

Query block: Give a short answer stating reported GI50 for CC(NC(=O)Cc1ccccc1)NC(=O)C(C)C(=O)Nc1ccccc1 (centres undefined) .
Result block: 61.5 µM (inactive)

Query block: Give a short answer stating reported GI50 for CCOC(=O)C(Cc1ccc(O)cc1)Nc1nc(=O)c2c(=O)oc(Cl)cc2o1 (centres undefined) .
Result block: 5.09 µM (inactive)

Query block: Give a short answer stating reported GI50 for C[N+](C)(C)CC1CCCC/C1=N\O (centres undefined) .
Result block: > 100 µM (inactive)

Query block: Give a short answer stating reported GI50 for Clc1ccc2[nH]c(CCSCCc3nc4ccc(Cl)cc4[nH]3)nc2c1 .
Result block: 10.2 µM (inactive)

New cases:
Query block: Give a short answer stating reported GI50 for CCOC(=O)COc1ccc(OCC(=O)OCC)c2c1C(=O)CCCC2=O .
Result block: 3.13 µM (inactive)

Query block: Give a short answer stating reported GI50 for COc1ccc(C2c3cc4c(cc3OC(N3CCCCC3)C2C)OCO4)cc1 (centres undefined) .
Result block: > 100 µM (inactive)

Query block: Give a short answer stating reported GI50 for CC(C)(C)OC(=O)N(CCCN)CCCCN .
Result block: > 100 µM (inactive)

Query block: Give a short answer stating reported GI50 for Cc1cc2c3c(c1)S(=O)(=O)c1cc(Cl)ccc1N3CCC2 .
Result block: 84.3 µM (inactive)

* * *

// GI50 lookup, one value per entry
# System: A549
# experiment-description: NCI tumour cell line growth inhibition, 48 h
The source made the active and inactive calls. No stated cut-off is given here; in the data, active = GI50 up to about 1.1 µM and inactive = higher.

Check out these entries, answers already filled in.
Query block: Give a short answer stating reported GI50 for COc1ccc(C2c3cc4c(cc3OC(N3CCCCC3)C2C)OCO4)cc1 (configuration not stated) .
Result block: 85.1 µM (inactive)

Query block: Give a short answer stating reported GI50 for Cc1cc(-c2ccc(C(=O)C(c3ccccc3)(c3ccccc3)c3ccccc3)[nH]2)on1 .
Result block: 12 µM (inactive)

Query block: Give a short answer stating reported GI50 for CN(Cc1ccccc1)C1(N(C)Cc2ccccc2)CC1 .
Result block: > 100 µM (inactive)

Query block: Give a short answer stating reported GI50 for CCOC(=O)CC(=O)NC1CC2CCC1(C)C2(C)C (configuration not stated) .
Result block: > 100 µM (inactive)

Query block: Give a short answer stating reported GI50 for Cc1ccc(C(CCO)CCO)nc1 .
Result block: > 100 µM (inactive)

Query block: Give a short answer stating reported GI50 for COc1cc2c(cc1OC)C13CC[N+]4(C)CC5=CCOC6CC(=O)N2C1C6C5CC34[O-] (configuration not stated) .
Result block: > 100 µM (inactive)

Query block: Give a short answer stating reported GI50 for COc1ccc(CNc2nc3cc(C(F)(F)F)ccc3nc2C)cc1OC .
Result block: 32.1 µM (inactive)

Query block: Give a short answer stating reported GI50 for COc1c(C)c(C/C=C(\C)CCCCO)c(OC)c(OC)c1OC .
Result block: 23.7 µM (inactive)

Here is the next item to consider.
Query block: Give a short answer stating reported GI50 for COC(=O)[C@@H]1C[C@H]([Se]c2ccccc2)CN1C(=O)OCc1ccccc1 .
Result block: 29.6 µM (inactive)

* * *

Reported log10(GI50) for target or system HCT-15, by entry.
Hi team, quick reminder: these entries are log10 of GI50 (µM).

Check out these entries, answers already filled in.
Query block: Look up HCT-15 data: log10(GI50) of CC(CO)(Nc1ccc([N+](=O)[O-])cc1[N+](=O)[O-])C(=O)O (configuration not stated) , then report it.
Result block: 1.25

Query block: Look up HCT-15 data: log10(GI50) of CC(C)(C)c1cc(C(=O)/C=C/c2ccc(O)c(O)c2O)cc(C(C)(C)C)c1O , then report it.
Result block: 0.00

Query block: Look up HCT-15 data: log10(GI50) of COC(=O)[C@@H]1C[C@H]([Se]c2ccccc2)CN1C(=O)OCc1ccccc1 , then report it.
Result block: 1.48

Query block: Look up HCT-15 data: log10(GI50) of O=C1C=C[C@@H](COC2OC(CO)C(O)C(O)C2O)O1 (some centres not stated) , then report it.
Result block: 0.57

New cases:
Query block: Look up HCT-15 data: log10(GI50) of C=C1C(=O)C=C[C@]2(C)CC[C@H]3C(=C)C(=O)O[C@@H]3[C@@H]12 , then report it.
Result block: -0.11

Query block: Look up HCT-15 data: log10(GI50) of NC(=S)N/N=C/c1nccc2ccccc12 , then report it.
Result block: -0.01

Query block: Look up HCT-15 data: log10(GI50) of CC(=O)Oc1cc(OC(C)=O)c(OC(C)=O)c2c1CC1C(=O)C3(CCc4ccccc43)C(=O)C1C2 (configuration not stated) , then report it.
Result block: 1.26

Query block: Look up HCT-15 data: log10(GI50) of CC1CC/C(=C\c2ccc(Cl)cc2)c2nc(N)c(C#N)c(-c3ccc(Cl)cc3)c21 (configuration not stated) , then report it.
Result block: 0.93

Query block: Look up HCT-15 data: log10(GI50) of Cc1ccc(N)c(S)c1 , then report it.
Result block: 1.22

* * *

# Test system: M14
# experiment-description: NCI tumour cell line growth inhibition, 48 h
The source made the active and inactive calls. No stated cut-off is given here; in the data, active = GI50 up to about 1.1 µM and inactive = higher.
observed-property: GI50

Check out these entries, answers already filled in.
Query block: Look up M14 data: GI50 of O=C(O)c1ccc([Se][Se]c2ccc(C(=O)O)cc2)cc1 , then report it.
Result block: 18.5 µM (inactive)

Query block: Look up M14 data: GI50 of C/C=C/C=C/C=C/C=C/C(=O)O , then report it.
Result block: > 100 µM (inactive)

Query block: Look up M14 data: GI50 of Cc1ccc(NC(=O)C(=O)Cc2cccc[n+]2[O-])cc1C , then report it.
Result block: > 100 µM (inactive)

Query block: Look up M14 data: GI50 of COc1cc2c(c(O)c1C)C(=O)CC(c1ccccc1)O2 (stereo not given) , then report it.
Result block: > 10 µM (inactive)

Here is the next item to consider.
Query block: Look up M14 data: GI50 of Cc1cc(O)nc(NNC(C#N)c2ccco2)n1 (stereo not given) , then report it.
Result block: > 100 µM (inactive)

* * *

# System: HCT-116
# experiment-description: NCI tumour cell line growth inhibition, 48 h
Calls of active or inactive are those of the source. Cut-off read from the data, not from the text of the source: active = GI50 up to about 1.1 µM and inactive = higher.
// one of true (active), false (inactive), no free text

Examples from the recorded data:
Query block: What did this assay record as the result for CC(C)(c1ccc(Oc2ccc(C#N)c(C#N)c2)cc1)c1ccc(Oc2ccc(C#N)c(C#N)c2)cc1 ?
Result block: false

Query block: What did this assay record as the result for COc1cc(CCNC2=CC(=O)c3cccnc3C2=O)ccc1O ?
Result block: false

Query block: What did this assay record as the result for CC(C)(C)c1cc([Si](C)(C)C)c(C#N)c([Si](C)(C)C)c1 ?
Result block: false

Query block: What did this assay record as the result for C/C=C\C(C)=C/C(C)C(=O)CC(O)CC1CC(=O)NC(=O)C1 (stereo not drawn) ?
Result block: false

Query block: What did this assay record as the result for N#CC(NC12CC3CC(CC(C3)C1)C2)c1ccccc1C(F)(F)F (stereo not drawn) ?
Result block: false

New cases:
Query block: What did this assay record as the result for C/C=C/C=C/C=C/C=C/C(=O)O ?
Result block: false

Query block: What did this assay record as the result for COc1cc(/C=C/C(=O)N[C@@H]2C(=O)N3[C@@H]2SC(C)(C)[C@@H]3C(=O)O)cc(OC)c1OC ?
Result block: false

* * *

# Test system: EKVX
# experiment-description: NCI tumour cell line growth inhibition, 48 h
The source made the active and inactive calls. No stated cut-off is given here; in the data, active = GI50 up to about 1.1 µM and inactive = higher.
// one of active, inactive, no free text

Examples from the recorded data:
Query block: What did this assay record as the result for NC(Cc1cc(I)c(Oc2ccc(O)c(I)c2)c(I)c1)C(=O)O (stereo unspecified) ?
Result block: inactive

Query block: What did this assay record as the result for O=C1c2ccccc2C(=O)N1c1nc(-c2ccc(Cl)cc2)cc(N2N=C(c3ccc(Br)cc3)CC2c2ccccc2)n1 (stereo unspecified) ?
Result block: active

Query block: What did this assay record as the result for Cc1ccc(Cn2c(C)nc3c2C(=O)c2ccccc2C3=O)cc1 ?
Result block: inactive

Query block: What did this assay record as the result for CC(C)C1=CC23CCC4C(C)(C(=O)O)CCCC4(C)C2CC1C1C(=O)N(c2ccc(N4C(=O)C5C6CC7C8(C)CCCC(C)(C(=O)O)C8CCC7(C=C6C(C)C)C5C4=O)cc2)C(=O)C13 (stereo unspecified) ?
Result block: inactive

Query block: What did this assay record as the result for COC(=O)c1cn(CCCCO)nn1 ?
Result block: inactive

Query block: What did this assay record as the result for COc1cc2c(cc1OC)C(Cl)C(c1ccc(F)cc1)=C2Cl (stereo unspecified) ?
Result block: inactive

New cases:
Query block: What did this assay record as the result for C=C1C(=O)OC2(C)CCC1CC1OC1(C)CCC=C(C)CCC2O (stereo unspecified) ?
Result block: inactive

Query block: What did this assay record as the result for CO/C(N)=C(C#N)/N=C/c1ccccc1 ?
Result block: inactive
